# System: HepG2 human hepatocellular carcinoma cells
# assayNotes: In vitro HepG2 cytotoxicity (CellTiter 96)
# details: Homo sapiens, HepG2, 24 h, read-out: HepG2 IC50, 24 h incubation; * limit = highest evaluated concentration (precipitation in medium); ** over the 1000 µM limit
pIC50: −log10 of the molar value.
assayReadout: pIC50

compound="NC(=O)c1nccnc1NC(=O)c1ccc(Cl)cc1 [Compound 15]" reading="< 4.00"
compound="Cc1ccc(-c2nc3nccnc3c(=O)[nH]2)cc1 [Compound 40]" reading="< 3.00"
compound="NC(=O)c1nccnc1NC(=O)c1ccc(F)cc1 [Compound 12]" reading="< 3.60"

q: Read the entry NC(=O)c1nccnc1NC(=O)c1ccccc1Br [Compound 16] and write its reported pIC50.
a: < 3.30

###

# Test system: HepG2 human hepatocellular carcinoma cells
# assayNotes: In vitro HepG2 cytotoxicity (CellTiter 96)
# details: Homo sapiens, HepG2, 24 h, read-out: HepG2 IC50, 24 h incubation; * limit = highest evaluated concentration (precipitation in medium); ** over the 1000 µM limit
pIC50: −log10 of the molar value.
Property: pIC50; scope: individual molecules

Recorded results for 8 molecules are shown here.
smilestext=Cc1ccccc1C(=O)Nc1nccnc1C(N)=O assayreadout=pIC50 reading=3.37
smilestext=CO[C@H]1/C=C/O[C@@]2(C)Oc3c(C)c(O)c4c(O)c(c(/C=N/N5CCN(C)CC5)c(O)c4c3C2=O)NC(=O)/C(C)=C\C=C\[C@H](C)[C@H](O)[C@@H](C)[C@@H](O)[C@@H](C)[C@H](OC(C)=O)[C@@H]1C assayreadout=pIC50 reading="< 3.30"
smilestext=O=c1[nH]c(-c2ccc(Br)cc2)nc2nccnc12 assayreadout=pIC50 reading="< 3.60"
smilestext=NC(=O)c1nccnc1NC(=O)c1cccc(F)c1 assayreadout=pIC50 reading="< 4.30"
smilestext=Cc1ccc(C(=O)Nc2nccnc2C(N)=O)cc1 assayreadout=pIC50 reading="< 4.00"
smilestext=NC(=O)c1nccnc1NC(=O)c1cccc(Cl)c1 assayreadout=pIC50 reading="< 4.60"
smilestext=NC(=O)c1nccnc1NC(=O)c1ccc(O)cc1 assayreadout=pIC50 reading="< 3.30"
smilestext=O=c1[nH]c(-c2ccc(F)cc2)nc2nccnc12 assayreadout=pIC50 reading="< 3.00"

From here, focus on the item given below.
q: Read the entry NC(=O)c1nccnc1NC(=O)c1ccccc1Cl and write its reported pIC50.
a: < 3.60

###

# Tested on: Mycobacterium tuberculosis H37Rv CNCTC My 331/88 (ATCC 27294)
# assayNotes: MABA microdilution, Mtb H37Rv
# Assay type: cell-based
# details: Mycobacterium tuberculosis, read-out: Mtb H37Rv MIC
Property: MIC; scope: individual compounds
Provide the measurement as a number trailed by its unit.

compound=NC(=O)c1nccnc1NC(=O)c1ccc(Br)cc1 reading="6.25 µg/mL"
compound=NC(=O)c1nccnc1NC(=O)c1ccc(F)cc1 reading="50 µg/mL"
compound=NC(=O)c1nccnc1NC(=O)c1ccc(Cl)cc1 reading="6.25 µg/mL"
compound="O=C(O)c1cn(C2CC2)c2cc(N3CCNCC3)c(F)cc2c1=O [CIP, ciprofloxacin, reference compound]" reading="0.2 µg/mL"

From here, focus on the item given below.
q: Read the entry Cc1ccc(C(=O)Nc2nccnc2C(N)=O)cc1 and write its reported MIC.
a: 6.25 µg/mL

###

# Tested on: Candida tropicalis CCM 8264 (ATCC 750)
# assayNotes: Antifungal microdilution broth (EUCAST), CT
# Format: cell-based
# details: Candida tropicalis; read after 24 h; read-out: CT MIC
assayReadout: MIC

Recorded results for 5 molecules are shown here.
molecule="NC(=O)c1nccnc1NC(=O)c1ccccc1C(F)(F)F [Compound 20]" reading="> 500 µM"
molecule="COC(=O)c1nccnc1NC(=O)c1ccccc1Br [Compound 16e]" reading="> 500 µM"
molecule="CC(C)(C)c1ccc(C(=O)Nc2nccnc2C(N)=O)cc1 [Compound 6]" reading="> 125 µM"
molecule="Cc1ccccc1C(=O)Nc1nccnc1C(N)=O [Compound 2]" reading="> 125 µM"
molecule="COc1cccc(C(=O)Nc2nccnc2C(N)=O)c1 [Compound 8]" reading="> 500 µM"

q: Read the entry O=c1[nH]c(-c2ccc(Cl)cc2)nc2nccnc12 [Compound 42] and write its reported MIC.
a: > 125 µM

q: Read the entry NC(=O)c1nccnc1NC(=O)C1CCCCC1 [Compound 27] and write its reported MIC.
a: > 500 µM

q: Read the entry NC(=O)c1nccnc1NC(=O)c1ccccc1 [Compound 1] and write its reported MIC.
a: > 500 µM

q: Read the entry Cc1cccc(C(=O)Nc2nccnc2C(N)=O)c1 [Compound 3] and write its reported MIC.
a: > 500 µM

q: Read the entry CNC(=O)c1nccnc1NC(=O)c1ccc(C)cc1 [Compound 33] and write its reported MIC.
a: > 500 µM

q: Read the entry COC(=O)c1nccnc1NC(=O)c1ccc(C)cc1 [Compound 4e] and write its reported MIC.
a: > 500 µM

q: Read the entry Cc1ccc(-c2nc3nccnc3c(=O)[nH]2)cc1 [Compound 40] and write its reported MIC.
a: > 125 µM

q: Read the entry COc1ccccc1C(=O)Nc1nccnc1C(N)=O [Compound 7] and write its reported MIC.
a: > 500 µM

q: Read the entry COC(=O)c1nccnc1NC(=O)c1ccc(OC)cc1 [Compound 9e] and write its reported MIC.
a: > 500 µM

q: Read the entry NC(=O)c1nccnc1NC(=O)c1cc(Cl)cc(Cl)c1 [Compound 19] and write its reported MIC.
a: > 500 µM

q: Read the entry O=c1[nH]c(-c2ccc(F)cc2)nc2nccnc12 [Compound 41] and write its reported MIC.
a: > 125 µM

q: Read the entry CNC(=O)c1nccnc1NC(=O)c1ccc(Br)cc1 [Compound 35] and write its reported MIC.
a: > 125 µM

q: Read the entry NC(=O)c1nccnc1NC(=O)c1cccc(Br)c1 [Compound 17] and write its reported MIC.
a: > 125 µM

q: Read the entry CCCCCCC(=O)Nc1nccnc1C(N)=O [Compound 31] and write its reported MIC.
a: > 125 µM

q: Read the entry NC(=O)c1nccnc1NC(=O)Cc1ccc(F)cc1 [Compound 25] and write its reported MIC.
a: > 250 µM

q: Read the entry COC(=O)c1nccnc1NC(=O)C1CCCCC1 [Compound 27e] and write its reported MIC.
a: > 500 µM

q: Read the entry NC(=O)c1nccnc1NC(=O)c1ccccc1F [Compound 10] and write its reported MIC.
a: > 500 µM

q: Read the entry CNC(=O)c1nccnc1NC(=O)c1ccc(Cl)cc1 [Compound 34] and write its reported MIC.
a: > 125 µM

q: Read the entry NC(=O)c1nccnc1NC(=O)c1ccc(F)cc1 [Compound 12] and write its reported MIC.
a: > 500 µM

###

# System: Candida parapsilosis CCM 8260 (ATCC 22019)
# assayNotes: Antifungal microdilution broth (EUCAST), CP
# Type: cell-based
# details: Lodderomyces parapsilosis; read after 24 h; read-out: CP MIC
assayReadout: MIC

Recorded results for 4 molecules are shown here.
smilestext=NC(=O)c1nccnc1NC(=O)c1cc(Cl)cc(Cl)c1 assaysystem="Candida parapsilosis CCM 8260 (ATCC 22019)" reading="> 500 µM"
smilestext=NC(=O)c1nccnc1NC(=O)c1ccccc1Br assaysystem="Candida parapsilosis CCM 8260 (ATCC 22019)" reading="> 500 µM"
smilestext=Cc1ccccc1C(=O)Nc1nccnc1C(N)=O assaysystem="Candida parapsilosis CCM 8260 (ATCC 22019)" reading="> 125 µM"
smilestext=O=c1[nH]c(-c2ccccc2)nc2nccnc12 assaysystem="Candida parapsilosis CCM 8260 (ATCC 22019)" reading="> 125 µM"

q: Read the entry O=c1[nH]c(-c2ccc(Cl)cc2)nc2nccnc12 and write its reported MIC.
a: > 125 µM

q: Read the entry NC(=O)c1nccnc1NC(=O)c1ccc([N+](=O)[O-])cc1 and write its reported MIC.
a: > 125 µM

q: Read the entry CNC(=O)c1nccnc1NC(=O)c1ccc(Cl)cc1 and write its reported MIC.
a: > 125 µM

q: Read the entry CCCCCCC(=O)Nc1nccnc1C(N)=O and write its reported MIC.
a: > 125 µM

q: Read the entry COc1ccc(C(=O)Nc2nccnc2C(N)=O)cc1 and write its reported MIC.
a: > 125 µM

q: Read the entry NC(=O)c1nccnc1NC(=O)c1cccc(Cl)c1 and write its reported MIC.
a: > 125 µM

###

# System: Aspergillus fumigatus ATCC 204305
# assayNotes: Antifungal microdilution broth (EUCAST), AF
# Format: cell-based
# details: Aspergillus fumigatus, ATCC204305; read after 24 h; read-out: AF MIC
assayReadout: MIC

Recorded results for 3 compounds are shown here.
compound="COC(=O)c1nccnc1NC(=O)c1ccc(OC)cc1 [Compound 9e]" assayreadout=MIC reading="> 500 µM"
compound="NC(=O)c1nccnc1NC(=O)c1cccc(Br)c1 [Compound 17]" assayreadout=MIC reading="> 125 µM"
compound="NC(=O)c1nccnc1NC(=O)c1ccc(Br)cc1 [Compound 18]" assayreadout=MIC reading="> 125 µM"

q: Read the entry COC(=O)c1nccnc1NC(=O)c1ccc(Br)cc1 [Compound 18e] and write its reported MIC.
a: > 500 µM

q: Read the entry NC(=O)c1nccnc1NC(=O)c1ccccc1 [Compound 1] and write its reported MIC.
a: > 500 µM

q: Read the entry COc1ccccc1C(=O)Nc1nccnc1C(N)=O [Compound 7] and write its reported MIC.
a: > 500 µM

q: Read the entry CNC(=O)c1nccnc1NC(=O)c1ccc(C)cc1 [Compound 33] and write its reported MIC.
a: > 500 µM

q: Read the entry COc1cccc(C(=O)Nc2nccnc2C(N)=O)c1 [Compound 8] and write its reported MIC.
a: > 500 µM

q: Read the entry CCCCCCC(=O)Nc1nccnc1C(N)=O [Compound 31] and write its reported MIC.
a: > 125 µM

q: Read the entry CC(C)(C)c1ccc(C(=O)Nc2nccnc2C(N)=O)cc1 [Compound 6] and write its reported MIC.
a: > 125 µM

q: Read the entry NC(=O)c1nccnc1NC(=O)C12CC3CC(CC(C3)C1)C2 [Compound 28] and write its reported MIC.
a: > 500 µM

q: Read the entry O=c1[nH]c(-c2ccc(F)cc2)nc2nccnc12 [Compound 41] and write its reported MIC.
a: > 125 µM

q: Read the entry Cc1cccc(C(=O)Nc2nccnc2C(N)=O)c1 [Compound 3] and write its reported MIC.
a: > 500 µM

q: Read the entry COC(=O)c1nccnc1NC(=O)c1ccc(C)cc1 [Compound 4e] and write its reported MIC.
a: > 500 µM

q: Read the entry NC(=O)c1nccnc1NC(=O)c1ccc(F)cc1 [Compound 12] and write its reported MIC.
a: > 500 µM

q: Read the entry Cc1ccc(-c2nc3nccnc3c(=O)[nH]2)cc1 [Compound 40] and write its reported MIC.
a: > 125 µM

q: Read the entry CCc1ccc(C(=O)Nc2nccnc2C(N)=O)cc1 [Compound 5] and write its reported MIC.
a: > 250 µM
